system: PC-3 prostate; experiment: NCI tumour cell line growth inhibition, 48 h
MEASURED ATTRIBUTE: TGI

Exercise: I'm curious: which TGI was measured for CC(C)NC(=O)OCc1c(COC(=O)NC(C)C)c(-c2ccc(Cl)c(Cl)c2)n2c1CCC2 tested on PC-3 prostate?
Solution: > 100 µM

Exercise: Missing value: TGI, PC-3 prostate, entry N#CCCSC(=S)C1CCCC1=N (stereo not drawn) . Fill in?
Solution: > 100 µM

Continuing:
Exercise: Query the reported TGI for PC-3 prostate; item: Nc1ncnc2c1ncn2C1C=CC(COS(N)(=O)=O)C1 (stereo not drawn)
Solution: > 100 µM
